Entry source: paper PMC9482650

Measured pKd, listed per entry.
- STUDY_TARGET: MAST2, Q6P0Q8
- Sequence (Q6P0Q8 1099-1202): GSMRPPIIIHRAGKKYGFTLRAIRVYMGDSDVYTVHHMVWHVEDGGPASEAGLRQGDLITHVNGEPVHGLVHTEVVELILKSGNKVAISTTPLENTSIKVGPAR
- ASSAY_NAME: holdup assay
- Set-up: key: below the threshold = too weak to quantify, mostly under pKd 3.1 to 4
- TEST_PARAMETERS: plain residues with an end cap or a label only (N-terminal biotin on a linker: ttds)
MEASURED_QUANTITY: pKd

# BINDER, RECORDED_VALUE
records = [
    ("STLTIFETAL [ABCC4, O15439]", 5.92),
    ("TVASEKESVM [SLC1A5, Q15758]", 4.61),
    ("GQDSREETQL [KCNT2, Q6UVM3]", 5.91),
    ("PKTPPTDTSV [KIR3DL3, Q8N743]", 4.7),
    ("VLRLQSETSV [VANGL1, Q8TAA9]", 5.56),
    ("SVWLRKETRV [CYSLTR2, Q9NS75]", 5.27),
    ("SRPQRTQTQV [HPV67-E6, A4U7F2]", 5.27),
    ("ERKLSSESQV [LRP4, O75096]", 4.34),
    ("RSLEEEESQL [GRASP, Q7Z6J2]", 5.6),
    ("QSARYRDTEL [TJP2, Q9UDY2]", 5.7),
    ("SSRTRRETQL [HPV16-E6, P03126]", 5.66),
    ("IYVPEAQTRL [DLGAP4, Q9Y2H0]", 6.16),
]
